Values were extracted from paper PMC8531726.

System: Zur (Pseudomonas aeruginosa), ORF:f39b2fc0
Sequence: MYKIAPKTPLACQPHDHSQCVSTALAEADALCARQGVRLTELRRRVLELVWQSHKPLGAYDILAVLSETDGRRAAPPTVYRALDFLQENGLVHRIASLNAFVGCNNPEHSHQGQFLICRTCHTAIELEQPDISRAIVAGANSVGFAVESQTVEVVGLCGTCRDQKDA
Assay: EMSA
Conditions: EMSA: 30 ng DNA, 500 nM Zur, 5X Zn-less binding buffer (50 mM Tris, 200 mM KCl, 50 mM MgCl2, 5 mM DTT, 25% glycerol; 5X [sic], pH not given), 5 uM ZnCl2 …
MEASUREMENT NAME: binding

SEQ	MEASUREMENT NAME	OBSERVED
GTGCTGCACACAGACTCTCGTCTTCCAGTCAAGAGCCTTGGGATGCAGACTGTTTTTCAAATCATGACAACTTCTTAACGCGCATTGTTATAAAGTTGCGGGCGTTTGCGCCGGCCTGGCCGGTACCTTCGAGTTTTGCCTGGAGTGAAGATGAGAGTCGACCTGGAC (double strand) [pPA2439]	binding	binds
TCGAGCAGCCGAATGGTCGCCGGGAACTCTTTCCGGAGTTGCGAATTATTCTTATCGGAGTAATATGTAACTATATAACATTATGTAGGAGGCATCCCCATGAAACCCGGCATCCATCCCGAATACCGTCCCGTCCTGTTCCATGACACCTCGGCCGACGTGTACTTCCTGATCGGCTCCACC (double strand) [prpmE2]	binding	binds
ATGGGCCTGGGCGGCGAACGGCAGCAAGACGAGGGCTAACAGCAGTGGGCGCATGAACGGGACTCCGGCAAGGAAGGAAAAGAGTTTGTTACGTTATAACGAATTTTTCCGCCTGCCTAGCCTGGCCGATTTGGCCCCTACGCGCCGACGTGGGAGCATGGCGCGATTCGCTTGTGGAGAAAC (double strand) [pPA4063]	binding	binds

---

Test system: Zur (Pseudomonas aeruginosa), ORF:f39b2fc0
Sequence: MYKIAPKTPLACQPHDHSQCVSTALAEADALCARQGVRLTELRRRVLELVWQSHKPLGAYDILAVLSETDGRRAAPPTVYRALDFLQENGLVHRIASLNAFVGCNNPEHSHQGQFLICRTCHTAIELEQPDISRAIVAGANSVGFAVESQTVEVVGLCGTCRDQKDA
Experiment: EMSA
Conditions: EMSA: 30 ng DNA, 500 nM Zur, 5X Zn-less binding buffer (50 mM Tris, 200 mM KCl, 50 mM MgCl2, 5 mM DTT, 25% glycerol; 5X [sic], pH not given), 5 uM ZnCl2 …

SEQ	binding
ACTTTCCCGTTCCTCTTCGCCGGCAGGCATGCGGACATTGCCGCTGCACGTCGGCACGACGCCATGCAGAGTGGCTACGCGGGTCTACCGACACAAAAAGAAATAATATAACATCCCAATAAATACGCCGATCCGACCCCGTCGCCCTTCCTCCGGGAAGGGCCTGGGTTCGCTTTGGCCTGAAAAAAGTCCGACCCA (double strand) [pznuD]	binds
AGAAGTCCTGCTGGGCTTCGTCCATGTAGGCAGCGTCGGGCTGGGCAAGCAGTTCCTGTTCGGTCATGGGCTGAACCTGGGAAATTTAAAACGTTATACTATAACAATTAACACCACAATCGATGGCCCGCCAATCGCCTTCCGGCTACCCTGGGCCCACGTCATCCCGGGATCCACCGATGCGCCGCGTCCTCCGCCTTTACT (double strand) [pdksA2]	binds
GAGCGCCATGATCTGCTCGGTTGCGGTCATCTTTCCTCCTGGGGGGCATGCCCGGTTGAGAGTGGGGTCCTGTGCTTCGAGGGATACGGCGAGCGAGACGTTCCCTCGCCTCGATGAAGAAGAAACGGCGGGCATTCTTCATTCGAAGAAATGTTATGTTATAACTTATAAGTATTTATAATTCATACCTGCCGACCATGACCCCCCATTCCTCCCCGCACCGTCTTCCTCCGCTGCGGCTGGCCCGCGCCGTGCCGTTCCTCTACCTGCTTC (double strand) [pPA1922]	binds
